Entry source: ChEMBL document CHEMBL3259745

- protocol: Cytotoxicity against HEK293T cells expressing FXR and beta-lactamase genes assessed as inhibition of cell viability at 40 uM after 16 hrs by CellTiter-Glo luminescent assay relative to control
- Format: cell-based, HEK-293T
- measurement.conditions: human, read-out: INH

chemical.smiles | cytotoxicity at 16 h, 40 µM
COc1ccc(-c2nn(-c3ccccc3)cc2C(=O)Nc2cc(S(=O)(=O)N3CCOCC3)ccc2N2CCOCC2)cc1 | < 5%
Cc1cccc(-n2ncc(C(=O)Nc3cccc(S(=O)(=O)N4CCOCC4)c3)c2C)c1 | < 5%
COc1cccc(Cn2cc(C(=O)Nc3ccc(C)c(S(=O)(=O)N4CCOCC4)c3)c(-c3ccc(C)cc3)n2)c1 | < 5%
O=C(Nc1ccc(S(=O)(=O)N2CCOCC2)cc1)c1cn(-c2ccccc2)nc1-c1ccc(Cl)cc1 | < 5%
COc1cccc(Cn2cc(C(=O)Nc3ccc(C)c(S(=O)(=O)N4CCOCC4)c3)c(C(C)C)n2)c1 | < 5%
O=C(Nc1ccc(S(=O)(=O)N2CCOCC2)cc1)c1cn(-c2ccccc2)nc1-c1ccc(F)cc1 | < 5%
CCN(CC)S(=O)(=O)c1cc(NC(=O)c2cnn(-c3cccnc3)c2)ccc1C | 10.3%
COCCc1nn(C(C)C)cc1C(=O)Nc1ccc(C)c(S(=O)(=O)N2CCOCC2)c1 | < 5%
Cc1ccc(NC(=O)c2cn(C(C)C)nc2-c2ccc(C(F)(F)F)cc2)cc1S(=O)(=O)N1CCOCC1 | 19.5%
Cc1ccc(NC(=O)c2cnn(-c3cccnc3)c2)cc1S(=O)(=O)N1CCOCC1 | 27.9%
O=C(Nc1cccc(S(=O)(=O)N2CCOCC2)c1)c1cn(-c2ccccc2)nc1-c1cccnc1 | < 5%
O=C(Nc1ccc(F)c(S(=O)(=O)N2CCOCC2)c1)c1cnn(-c2ccccc2)c1 | 27.4%

---

Items are presented alongside their recorded cytotoxicity at 16 h, 40 µM.
- protocol: Cytotoxicity against HEK293T cells expressing FXR and beta-lactamase genes assessed as inhibition of cell viability at 40 uM after 16 hrs by CellTiter-Glo luminescent assay relative to control
- Type: cell-based, HEK-293T
- measurement.conditions: human, read-out: INH

chemical.smiles | unit.tag | limit.qualifier | cytotoxicity at 16 h, 40 µM
COc1cccc(Cn2cc(CNc3ccc(C)c(S(=O)(=O)N4CCOCC4)c3)c(-c3cccc(OC)c3)n2)c1 | % | < | 5
Cc1ccc(-c2nn(-c3ccccc3)cc2C(=O)Nc2cccc(S(=O)(=O)N3CCOCC3)c2)cc1 | % | = | 5.4
O=C(Nc1cccc(S(=O)(=O)N2CCOCC2)c1)c1cn(-c2ccccc2)nc1-c1ccccc1 | % | = | 7.1
